Molecular target: Kappa-type opioid receptor (Homo sapiens)
Sequence (P41145 whole entry): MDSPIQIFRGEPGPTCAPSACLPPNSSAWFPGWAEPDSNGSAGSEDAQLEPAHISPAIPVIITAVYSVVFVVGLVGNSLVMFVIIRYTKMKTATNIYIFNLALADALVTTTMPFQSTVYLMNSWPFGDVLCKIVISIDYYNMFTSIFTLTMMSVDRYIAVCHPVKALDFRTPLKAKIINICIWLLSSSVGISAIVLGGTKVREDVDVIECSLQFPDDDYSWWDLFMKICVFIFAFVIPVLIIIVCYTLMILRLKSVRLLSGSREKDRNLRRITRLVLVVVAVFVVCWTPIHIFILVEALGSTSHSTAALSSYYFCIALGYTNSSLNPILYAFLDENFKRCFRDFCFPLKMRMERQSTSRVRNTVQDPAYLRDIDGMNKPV
Assay: Displacement of [3H]U69593 from kappa opioid receptor expressed in HEK293 cells relative to salvinorin A
Type: cell-based
Set-up: concentration or dose not given beside the values
Catalogue of compounds with associated Activity
ENDPOINT NAME: Activity (%)

{"LINE NOTATION": "COC(=O)[C@@H]1C[C@H](OC(=O)CN)C(=O)[C@H]2[C@@]1(C)CC[C@H]1C(=O)O[C@H](c3ccoc3)C[C@]21C", "ENDPOINT NAME": "Activity", "VAL": 41}
{"LINE NOTATION": "COC(=O)[C@@H]1C[C@H](OC(=O)CCCNC(=O)OCC2c3ccccc3-c3ccccc32)C(=O)[C@H]2[C@@]1(C)CC[C@H]1C(=O)O[C@H](c3ccoc3)C[C@]21C", "ENDPOINT NAME": "Activity", "VAL": 10}
{"LINE NOTATION": "COC(=O)[C@@H]1C[C@H](OC(=O)[C@@H](NC(=O)OCC2c3ccccc3-c3ccccc32)[C@H](C)OC(C)(C)C)C(=O)[C@H]2[C@@]1(C)CC[C@H]1C(=O)O[C@H](c3ccoc3)C[C@]21C", "ENDPOINT NAME": "Activity", "VAL": 28}

---

// values below are reported Activity
Target: Kappa-type opioid receptor (Homo sapiens)
Test: Displacement of [3H]U69593 from kappa opioid receptor expressed in HEK293 cells relative to salvinorin A
Assay type: cell-based
Design: concentration or dose not given beside the values

{"LINE NOTATION": "COC(=O)[C@@H]1C[C@H](OC(=O)[C@@H](N)Cc2ccccc2)C(=O)[C@H]2[C@@]1(C)CC[C@H]1C(=O)O[C@H](c3ccoc3)C[C@]21C", "ASSAY SYSTEM": "Kappa-type opioid receptor (Homo sapiens)", "Activity (%)": 19}
{"LINE NOTATION": "COC(=O)[C@@H]1C[C@H](OC(=O)[C@H](C)NC(=O)OCC2c3ccccc3-c3ccccc32)C(=O)[C@H]2[C@@]1(C)CC[C@H]1C(=O)O[C@H](c3ccoc3)C[C@]21C", "ASSAY SYSTEM": "Kappa-type opioid receptor (Homo sapiens)", "Activity (%)": 21}
{"LINE NOTATION": "COC(=O)[C@@H]1C[C@H](OC(=O)[C@@H](NC(=O)OCC2c3ccccc3-c3ccccc32)C(C)C)C(=O)[C@H]2[C@@]1(C)CC[C@H]1C(=O)O[C@H](c3ccoc3)C[C@]21C", "ASSAY SYSTEM": "Kappa-type opioid receptor (Homo sapiens)", "Activity (%)": 39}
{"LINE NOTATION": "COC(=O)[C@@H]1C[C@H](OC(=O)CNC(=O)OCC2c3ccccc3-c3ccccc32)C(=O)[C@H]2[C@@]1(C)CC[C@H]1C(=O)O[C@H](c3ccoc3)C[C@]21C", "ASSAY SYSTEM": "Kappa-type opioid receptor (Homo sapiens)", "Activity (%)": 4}
{"LINE NOTATION": "COC(=O)[C@@H]1C[C@H](OC(=O)[C@@H](N)C(C)C)C(=O)[C@H]2[C@@]1(C)CC[C@H]1C(=O)O[C@H](c3ccoc3)C[C@]21C", "ASSAY SYSTEM": "Kappa-type opioid receptor (Homo sapiens)", "Activity (%)": 103}
{"LINE NOTATION": "COC(=O)[C@@H]1C[C@H](OC(=O)[C@H](Cc2ccccc2)NC(=O)OCC2c3ccccc3-c3ccccc32)C(=O)[C@H]2[C@@]1(C)CC[C@H]1C(=O)O[C@H](c3ccoc3)C[C@]21C", "ASSAY SYSTEM": "Kappa-type opioid receptor (Homo sapiens)", "Activity (%)": 0}

Cited source for all entries: ChEMBL document CHEMBL1641545
